# credit: patent US20070207138A1

Method notes: Blood concentration test
Assay type: in vivo
Condition: serum; beagle dog fasted overnight, oral, DFNa 6 mg/kg body weight
Metric name: half-life (min)

{"columns": ["Compound", "Metric name", "Measured value"],
 "data": [
  ["O=C(O)Cc1ccccc1Nc1c(Cl)cccc1Cl [DFNa solution, diclofenac sodium]", "half-life", 58.8]
]}
